Attribute: self-aminoacylation
tested on: biotinyl-Trp-oxazolone; assay: self-aminoacylation, catalytic enhancement (BWO) (fold over background); higher = more active; k-Seq, kA / k0A0; sequences stand for … in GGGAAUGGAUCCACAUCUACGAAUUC…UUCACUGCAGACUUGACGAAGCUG
Variants at the floor of the assay were thinned out.
READOUT_TYPE: self-aminoacylation

# SEQUENCE_INPUT, EXPERIMENTAL_RESULT
data = [
    ("CAACACUUCAAGCAAUCGGUU [Fam1B.1 aminoacylation ribozyme variant]", 4.96),
    ("CUACAUCAAACAAUCGGUCCG [Fam1A.1 aminoacylation ribozyme variant]", 0.83),
    ("AUUACCCCGGUCAUCGAGUGG [Fam2.1 aminoacylation ribozyme variant]", 0.999),
    ("AUUACCCUAGUCAUCGAGCGA [Fam2.1 aminoacylation ribozyme variant]", 1.21),
    ("CCACGCUUCAUGCAAUCGGUC [Fam1B.1 aminoacylation ribozyme variant]", 0.507),
    ("ACUACCCUGGUCAUCAAGUGA [Fam2.1 aminoacylation ribozyme variant]", 2.76),
    ("CCACACUCCAAGCAAUCGGCC [Fam1B.1 aminoacylation ribozyme variant]", 2.59),
    ("CCGCACUUCACGCAAUCGGUC [Fam1B.1 aminoacylation ribozyme variant]", 1.85),
    ("CGACUUCAAACAUUCGGUCUG [Fam1A.1 aminoacylation ribozyme variant]", 2.1),
    ("AUUCGCCUAGGUCAUCGGGUA [Fam2.2 aminoacylation ribozyme variant]", 35.3),
    ("ACACCCUUCAAGCAAUCGGUC [Fam1B.1 aminoacylation ribozyme variant]", 1.59),
    ("AUUACCCUAGACAUCGAGUGA [Fam2.1 aminoacylation ribozyme variant]", 9.09),
    ("AUUACCUUGGUCAUUGAGUGA [Fam2.1 aminoacylation ribozyme variant]", 10.2),
    ("AUUACCCUGGUCAUCCAUUGA [Fam2.1 aminoacylation ribozyme variant]", 0.684),
    ("AUUCACCUAGGUAAACGGGUG [Fam2.2 aminoacylation ribozyme variant]", 3.84),
    ("AUUCCCCUAGGUCAUCGGCUG [Fam2.2 aminoacylation ribozyme variant]", 6.44),
]

----------
test system: biotinyl-Ile-oxazolone; test: self-aminoacylation, catalytic enhancement (BIO) (fold over background); higher = more active; k-Seq, kA / k0A0; sequences stand for … in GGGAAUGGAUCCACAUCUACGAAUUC…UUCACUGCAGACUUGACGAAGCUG
This sample holds only a part of the variants without activity.
READOUT_TYPE: self-aminoacylation

# SEQUENCE_INPUT, ASSAYED_SYSTEM, EXPERIMENTAL_RESULT
rows = [
    ("AUUACCCUGGUCAUGGAGGGA [Fam2.1 aminoacylation ribozyme variant]", "biotinyl-Ile-oxazolone", 1.82),
    ("AAGUUUGCGUAUAGUCGCAAG [Fam3.1 aminoacylation ribozyme variant]", "biotinyl-Ile-oxazolone", 0.888),
    ("AUUCACCUGGGUCAUCAGGUG [Fam2.2 aminoacylation ribozyme variant]", "biotinyl-Ile-oxazolone", 1.52),
    ("CCACCCUUCGAGCAAUCGGUC [Fam1B.1 aminoacylation ribozyme variant]", "biotinyl-Ile-oxazolone", 1.49),
    ("AUUAUCCUGGUCAUGGAGUGA [Fam2.1 aminoacylation ribozyme variant]", "biotinyl-Ile-oxazolone", 2.67),
]

----------
Recorded self-aminoacylation, one value per entry.
tested on: biotinyl-Ile-oxazolone; assay: self-aminoacylation, catalytic enhancement (BIO) (fold over background); higher = more active; k-Seq, kA / k0A0; sequences stand for … in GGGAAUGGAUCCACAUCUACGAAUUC…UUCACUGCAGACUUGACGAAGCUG
Variants at the floor of the assay were thinned out.

# SEQUENCE_INPUT, self-aminoacylation
rows = [
    ("AAGGUUGCUCAUAGUCGCAAG [Fam3.1 aminoacylation ribozyme variant]", 1.46),
    ("AUUCACCUAGGUCAUUGGGCG [Fam2.2 aminoacylation ribozyme variant]", 2.58),
    ("AUUACCAUGGUCAUGGAGUGA [Fam2.1 aminoacylation ribozyme variant]", 3.74),
    ("CUCCUUCAAGCAAUCGGUCUG [Fam1A.1 aminoacylation ribozyme variant]", 1.09),
    ("CUACUUCAAACCAUCGGUCCG [Fam1A.1 aminoacylation ribozyme variant]", 0.761),
    ("AUACACCUAGGUCAUCGGGUG [Fam2.2 aminoacylation ribozyme variant]", 2.93),
    ("CCACUCUUCAAGCCAUCGGUC [Fam1B.1 aminoacylation ribozyme variant]", 1.09),
    ("CUACUUCCAACAAUCGGGCUG [Fam1A.1 aminoacylation ribozyme variant]", 1.59),
    ("AUUCACCUAGGCCAUUGGGUG [Fam2.2 aminoacylation ribozyme variant]", 3.11),
    ("CCACACUUCCAGCAAUGGGUC [Fam1B.1 aminoacylation ribozyme variant]", 1.34),
    ("AUUUACCCAGGUCAUCGGGUG [Fam2.2 aminoacylation ribozyme variant]", 3.28),
    ("ACGUUUGCUAAUAGGCGCAAG [Fam3.1 aminoacylation ribozyme variant]", 1.94),
    ("CCACACUUGAAGCAAUCCGUC [Fam1B.1 aminoacylation ribozyme variant]", 1.02),
    ("CUACUUCGACCAAUCGGUCUG [Fam1A.1 aminoacylation ribozyme variant]", 0.854),
]

----------
In this section we review reported self-aminoacylation values for a set of sequences.
tested on: biotinyl-Val-oxazolone; assay: self-aminoacylation, catalytic enhancement (BVO) (fold over background); higher = more active; k-Seq, kA / k0A0; sequences stand for … in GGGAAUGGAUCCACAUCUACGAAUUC…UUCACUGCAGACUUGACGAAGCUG
This sample holds only a part of the variants without activity.

# SEQUENCE_INPUT, ASSAYED_SYSTEM, self-aminoacylation
measured = [
    ("AUUCAUCUGGGUCAUCGGGUG [Fam2.2 aminoacylation ribozyme variant]", "biotinyl-Val-oxazolone", 4.92),
    ("AUGUUUGCUAAAAGUCGCAAG [Fam3.1 aminoacylation ribozyme variant]", "biotinyl-Val-oxazolone", 1.47),
    ("CCACGCUUCAAGCAAUAGGUC [Fam1B.1 aminoacylation ribozyme variant]", "biotinyl-Val-oxazolone", 0.577),
]

----------
tested on: biotinyl-Ile-oxazolone; assay: self-aminoacylation, catalytic enhancement (BIO) (fold over background); higher = more active; k-Seq, kA / k0A0; sequences stand for … in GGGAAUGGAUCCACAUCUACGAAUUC…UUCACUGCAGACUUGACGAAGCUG
Fewer inactive variants are shown than the library holds.
So basically every entry gets a class from its self-aminoacylation, ranges being band A: < 0.9; band B: ≥ 0.9 and < 2; band C: ≥ 2

# SEQUENCE_INPUT, LABEL
records = [
    ("CUACUUCAAACGAUCGCUCUG [Fam1A.1 aminoacylation ribozyme variant]", "band A"),
    ("CUACUUCAAACAAUCAUUCUG [Fam1A.1 aminoacylation ribozyme variant]", "band A"),
    ("CAACACUUCAAGCAAUCCGUC [Fam1B.1 aminoacylation ribozyme variant]", "band B"),
    ("ACUACCCUGGUCAUCGUGUGA [Fam2.1 aminoacylation ribozyme variant]", "band B"),
    ("CCCCACUUCAAGCAAUGGGUC [Fam1B.1 aminoacylation ribozyme variant]", "band B"),
    ("AAGUUUGCUAAUAGACACAAG [Fam3.1 aminoacylation ribozyme variant]", "band A"),
    ("CCACCCCUCAAGCAAUCGGUC [Fam1B.1 aminoacylation ribozyme variant]", "band B"),
    ("AUUCCCCUAGUUCAUCGGGUG [Fam2.2 aminoacylation ribozyme variant]", "band C"),
    ("AAGUUUGCUAUUAGUCGUAAG [Fam3.1 aminoacylation ribozyme variant]", "band A"),
    ("AUUACGCUGUUCAUCGAGUGA [Fam2.1 aminoacylation ribozyme variant]", "band C"),
    ("CCACACUUCAUACAAUCGGUC [Fam1B.1 aminoacylation ribozyme variant]", "band A"),
    ("ACUACCCUGGUCGUCGAGUGA [Fam2.1 aminoacylation ribozyme variant]", "band B"),
    ("AUUCCCCUAGGUCAUCGGGUU [Fam2.2 aminoacylation ribozyme variant]", "band C"),
    ("AUUACCCUGGUCAUCGGGUUA [Fam2.1 aminoacylation ribozyme variant]", "band C"),
    ("AUUUACCUAGGUCAGCGGGUG [Fam2.2 aminoacylation ribozyme variant]", "band C"),
    ("UCACACUUUAAGCAAUCGGUC [Fam1B.1 aminoacylation ribozyme variant]", "band A"),
    ("AUUACCCUGGUCCUCUAGUGA [Fam2.1 aminoacylation ribozyme variant]", "band C"),
]

----------
test system: biotinyl-Val-oxazolone; test: self-aminoacylation, catalytic enhancement (BVO) (fold over background); higher = more active; k-Seq, kA / k0A0; sequences stand for … in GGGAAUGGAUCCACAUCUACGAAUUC…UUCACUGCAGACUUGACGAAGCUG
This sample holds only a part of the variants without activity.
READOUT_TYPE: self-aminoacylation

# SEQUENCE_INPUT, EXPERIMENTAL_RESULT
records = [
    ("UUGCUUCAAACAAUCGGUCUG [Fam1A.1 aminoacylation ribozyme variant]", 1.91),
    ("AUUACCCUGGUCAUGGAGUCA [Fam2.1 aminoacylation ribozyme variant]", 1.01),
    ("CUAAUGCAAACAAUCGGUCUG [Fam1A.1 aminoacylation ribozyme variant]", 0.577),
    ("CUACUUUAAACAAUCGGUUUG [Fam1A.1 aminoacylation ribozyme variant]", 0.8),
    ("AUUCACCUAGCUCAUCCGGUG [Fam2.2 aminoacylation ribozyme variant]", 2.51),
    ("CUACUUAAAACAAGCGGUCUG [Fam1A.1 aminoacylation ribozyme variant]", 0.902),
    ("UUACUUCAAACAAUCGGUCUG [Fam1A.1 aminoacylation ribozyme variant]", 1.22),
    ("CCACACUUCAACCUAUCGGUC [Fam1B.1 aminoacylation ribozyme variant]", 1.34),
]
